These data points were gathered from patent US9394285B2.

Target: human AMPK (full-length γ1, β1 and α1 subunits) (Homo sapiens (Human), UniProt Q13131+Q9Y478)
Sequence (Q13131 whole entry): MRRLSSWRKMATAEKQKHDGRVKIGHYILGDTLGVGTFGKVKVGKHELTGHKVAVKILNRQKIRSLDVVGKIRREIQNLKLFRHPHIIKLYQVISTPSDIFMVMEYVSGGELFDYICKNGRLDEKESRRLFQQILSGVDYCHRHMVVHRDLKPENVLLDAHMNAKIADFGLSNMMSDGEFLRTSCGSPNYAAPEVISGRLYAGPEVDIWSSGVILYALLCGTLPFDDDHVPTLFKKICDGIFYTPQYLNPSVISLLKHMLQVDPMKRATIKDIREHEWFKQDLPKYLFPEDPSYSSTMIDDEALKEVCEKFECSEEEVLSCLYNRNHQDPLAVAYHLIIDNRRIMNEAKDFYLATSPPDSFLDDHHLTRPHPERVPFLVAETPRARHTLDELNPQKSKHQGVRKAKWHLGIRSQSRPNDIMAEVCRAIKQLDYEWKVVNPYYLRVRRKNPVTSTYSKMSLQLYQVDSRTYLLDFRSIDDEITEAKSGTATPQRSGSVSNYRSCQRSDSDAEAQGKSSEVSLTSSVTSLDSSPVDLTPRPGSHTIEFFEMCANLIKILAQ
Sequence (Q9Y478 whole entry): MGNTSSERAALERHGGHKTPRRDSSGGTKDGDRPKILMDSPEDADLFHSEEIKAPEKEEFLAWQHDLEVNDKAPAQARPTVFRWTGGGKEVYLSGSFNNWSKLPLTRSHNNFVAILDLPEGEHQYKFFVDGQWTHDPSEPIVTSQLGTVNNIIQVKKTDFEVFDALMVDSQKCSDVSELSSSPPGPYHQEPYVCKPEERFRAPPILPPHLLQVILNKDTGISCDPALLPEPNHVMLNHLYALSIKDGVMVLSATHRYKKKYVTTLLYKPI
Sequence (P54619 whole entry partner): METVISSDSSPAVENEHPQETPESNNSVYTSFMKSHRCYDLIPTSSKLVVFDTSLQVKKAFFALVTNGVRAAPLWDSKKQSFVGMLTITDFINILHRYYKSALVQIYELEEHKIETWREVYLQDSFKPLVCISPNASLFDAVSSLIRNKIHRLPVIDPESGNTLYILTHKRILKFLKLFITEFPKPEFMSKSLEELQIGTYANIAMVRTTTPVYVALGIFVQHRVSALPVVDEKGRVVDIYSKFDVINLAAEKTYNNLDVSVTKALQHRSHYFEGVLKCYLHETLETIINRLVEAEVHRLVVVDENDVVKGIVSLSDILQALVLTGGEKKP
Assay: AMPK in vitro biochemical assay (33P-based, SAMS peptide, PP2A dephosphorylation)
Conditions: activation of phosphorylated AMPK; 33P-ATP, SAMS peptide, PP2A treatment; 4-parameter fit
pEC50: −log10 of the molar value.
Measured attribute: pEC50

Can you look up the measured pEC50 of `COc1ccc(-c2cc3c(C(=O)O)c[nH]c3cc2Cl)cc1OC` for me?
6.61

One more compound: `COc1cc(-c2cc3c(C(=O)O)c[nH]c3cc2Cl)ccc1C1(O)CCC1`
8.64

// repeat for `O=C(O)c1c[nH]c2cc(Cl)c(-c3ccc4c(c3)OC[C@H](CO)O4)cc12` and report
6.63

Check `COc1nc(N2CC[C@@H](O)C2)ccc1-c1cc2c(C(=O)O)c[nH]c2cc1Cl` too.
8.54

Next: `CC(=O)N1CCC(c2ccc(-c3cc4c(C(=O)O)n[nH]c4cc3Cl)cc2)CC1`
7.04

(1) CS(=O)(=O)N1CCC1c1ccc(-c2cc3c(C(=O)O)c[nH]c3cc2Cl)cc1 (stereo not drawn)
(2) O=C(O)c1n[nH]c2cc(Cl)c(-c3ccc(CCO)cc3)cc12
Of 1 and 2 , whose reported pEC50 is the larger number? API: response body contains the label of the selected item.
2

(P) O=C(O)c1c[nH]c2cc(F)c(-c3ccc(C4CCCCO4)cc3)cc12 (single isomer, unassigned) [Example 172]
(Q) O=C(O)c1c[nH]c2cc(Cl)c(-c3ccc(N4CCCC4=O)cc3)cc12
Compare reported pEC50 values for P and Q . Which is lower? Answer with the label corresponding to your selection.
Q
